- study-system: SARS-CoV-2 wild type spike protein (on reporter virus particles) (SARS-CoV-2, UniProt P0DTC2 14-1273)
- method-summary: cell-based or functional assay
measured-quantity: PsV IC50, Test 2 (nM)
Field: numeric (nM). Do not append units.

// known answers, use as guide
INSERT INTO results (binder, numeric_value) VALUES
  ('A-16 (antibody, V domains shown) VH: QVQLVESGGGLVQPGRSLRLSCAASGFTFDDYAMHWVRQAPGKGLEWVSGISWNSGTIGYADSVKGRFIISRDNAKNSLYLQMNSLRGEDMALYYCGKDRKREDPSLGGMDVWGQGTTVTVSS VL: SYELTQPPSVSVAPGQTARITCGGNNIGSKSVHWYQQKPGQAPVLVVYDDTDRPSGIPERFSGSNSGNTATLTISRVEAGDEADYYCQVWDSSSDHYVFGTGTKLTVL', 0.54),
  ('A-9 (antibody, V domains shown) VH: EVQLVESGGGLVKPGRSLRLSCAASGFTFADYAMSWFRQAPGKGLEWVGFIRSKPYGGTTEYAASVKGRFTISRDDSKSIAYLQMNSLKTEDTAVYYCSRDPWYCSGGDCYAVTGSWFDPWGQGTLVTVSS VL: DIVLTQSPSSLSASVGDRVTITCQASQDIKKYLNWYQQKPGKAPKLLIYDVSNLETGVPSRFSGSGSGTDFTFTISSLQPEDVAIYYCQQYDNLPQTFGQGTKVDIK', 0.04);

Attention now shifts to the item below.
-- ask Can you look up the measured PsV IC50, Test 2 of A-18 (antibody, V domains shown) VH: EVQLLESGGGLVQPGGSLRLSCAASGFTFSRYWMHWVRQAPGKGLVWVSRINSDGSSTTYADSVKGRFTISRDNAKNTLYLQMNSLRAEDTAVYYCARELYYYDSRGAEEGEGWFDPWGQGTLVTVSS VL: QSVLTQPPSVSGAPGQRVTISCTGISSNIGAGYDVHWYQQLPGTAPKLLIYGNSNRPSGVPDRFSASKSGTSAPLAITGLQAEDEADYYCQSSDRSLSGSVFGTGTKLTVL for me?
-- reply 2.78

// data source = patent US20260217797A1
